Read-out record for Cytochrome P450 2C19 (Homo sapiens, UniProt P33261): IC50

{"molecular_string": "O=C(Nc1ccc(-c2ccc(F)cn2)cc1)c1cc2sc(NCCN3CCOCC3)nc2s1", "target_entity": "Cytochrome P450 2C19 (Homo sapiens, UniProt P33261)", "value_type": "IC50", "recorded_value": "> 100 µM"}

Task: Suppose we examine the molecule `Cc1nc2cc(NC(=O)c3cc4sc(N5CCC(C(=O)N(C)C)CC5)nc4s3)ccc2o1` ; what IC50 value has been reported?
Output: > 50 µM

These data points were gathered from BindingDB's records for doi:10.1021/jf000548p.
